# Test system: Signal peptidase I (Escherichia coli K-12) (UniProt P00803)
# Sequence (P00803 whole entry): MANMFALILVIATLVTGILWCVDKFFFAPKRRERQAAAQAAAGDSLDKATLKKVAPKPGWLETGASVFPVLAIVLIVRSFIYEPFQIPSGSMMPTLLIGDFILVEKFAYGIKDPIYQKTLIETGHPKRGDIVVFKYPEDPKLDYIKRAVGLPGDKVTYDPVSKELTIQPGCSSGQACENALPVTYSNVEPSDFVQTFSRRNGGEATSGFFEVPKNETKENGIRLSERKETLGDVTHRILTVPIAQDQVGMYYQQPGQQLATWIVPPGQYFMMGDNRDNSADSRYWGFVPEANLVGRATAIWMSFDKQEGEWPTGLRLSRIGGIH
# Test protocol: Inhibition of Escherichia coli type 1 signal peptidase lepB assessed as residual activity at 0.0195 uM preincubated for 10 mins followed by Dabcyl-VGGTATAYGAFSRPGLE-(EDANS)-OH substrate addition measured after 2 hrs by FRET based assay (reference value: 100%)
Square brackets hold non-standard residues; d marks the D form. Peptide text beside a SMILES is read from it. * marks the point of attachment. Benzoyl(4-(4-hexylphenyl)) = CCCCCCc1ccc(-c2ccc(C(=O)*)cc2)cc1; X1 = C[C@H](N*)B1OC2C[C@@H]3C[C@@H](C3(C)C)[C@]2(C)O1; Orn = NCCC[C@H](N)C(=O)O
Measured attribute: Activity (%)
Number only, in %; omit the unit.

molecule=CCCCCCc1ccc(-c2ccc(C(=O)N[C@@H](CCCN)C(=O)N[C@H](C(=O)N[C@@H](C)C(=O)N[C@H]3Cc4cn(nn4)CCO[C@@H]4C[C@@H]5OB(O[C@@H]5C4)[C@H](C)NC3=O)[C@@H](C)O)cc2)cc1 measured_attribute=Activity unit_tag=% value_observed=84.3

Item CCCCCCc1ccc(-c2ccc(C(=O)N[C@@H](CCCN)C(=O)N[C@H](C(=O)N[C@@H](C)C(=O)N[C@@H](CC(N)=O)C(=O)N[C@@H](C)B3OC4C[C@@H]5C[C@@H](C5(C)C)[C@]4(C)O3)[C@@H](C)O)cc2)cc1 (some centres not stated) ({Benzoyl(4-(4-hexylphenyl))}-[Orn]TAN-X1) has what recorded Activity?
42.9

====

# Test system: Signal peptidase I (Escherichia coli K-12) (UniProt P00803)
# Test protocol: Inhibition of Escherichia coli type 1 signal peptidase lepB assessed as residual activity at 0.0024 uM preincubated for 10 mins followed by Dabcyl-VGGTATAYGAFSRPGLE-(EDANS)-OH substrate addition measured after 2 hrs by FRET based assay (reference value: 100%)
Square brackets hold non-standard residues; d marks the D form. Peptide text beside a SMILES is read from it. * marks the point of attachment. Benzoyl(4-(4-hexylphenyl)) = CCCCCCc1ccc(-c2ccc(C(=O)*)cc2)cc1; boroAla = C[C@H](N*)B(O)O; Orn = NCCC[C@H](N)C(=O)O
Measured attribute: Activity
Write the figure, then the unit, nothing else.

compound=CCCCCCc1ccc(-n2cc(C(=O)N[C@@H](CCCN)C(=O)N[C@H](C(=O)N[C@@H](C)C(=O)N[C@H]3Cc4cn(nn4)CCO[C@@H]4C[C@@H]5OB(O[C@@H]5C4)[C@H](C)NC3=O)[C@@H](C)O)ccc2=O)cc1 value_observed=101%

Item CCCCCCC#Cc1cncc(C(=O)N[C@@H](CCCN)C(=O)N[C@H](C(=O)N[C@@H](C)C(=O)N[C@H]2Cc3cn(nn3)CCO[C@@H]3C[C@@H]4OB(O[C@@H]4C3)[C@H](C)NC2=O)[C@@H](C)O)c1 has what recorded Activity?
93.6%

Also check CCCCCCc1ccc(-c2ccc(C(=O)N[C@@H](CCCNC(=N)N)C(=O)N[C@H](C(=O)N[C@@H](C)C(=O)N[C@H]3Cc4cn(nn4)CCCN4C[C@@H]5OB(O[C@@H]5C4)[C@H](C)NC3=O)[C@@H](C)O)cc2)cc1
102%

Also check CCCCCCc1ccc(-c2c[nH]c3ccc(C(=O)N[C@@H](CCCN)C(=O)N[C@H](C(=O)N[C@@H](C)C(=O)N[C@H]4Cc5cn(nn5)CCO[C@@H]5C[C@@H]6OB(O[C@@H]6C5)[C@H](C)NC4=O)[C@@H](C)O)cc23)cc1
108%

Also check CCCCCCc1ccc(-c2ccc(C(=O)N[C@@H](CCCN)C(=O)N[C@H](C(=O)N[C@@H](C)C(=O)N[C@@H](CC(N)=O)C(=O)N[C@@H](C)B(O)O)[C@@H](C)O)cc2)cc1 ({Benzoyl(4-(4-hexylphenyl))}-[Orn]TAN-boroAla)
87%

Also check C[C@@H]1NC(=O)[C@@H](NC(=O)[C@H](C)NC(=O)[C@@H](NC(=O)[C@H](CCCN)NC(=O)C#Cc2ccc(-c3ccccc3)cc2)[C@@H](C)O)Cc2cn(nn2)CCO[C@@H]2C[C@@H]3OB1O[C@@H]3C2
106%

Also check CCCCCCc1ccc(-c2ccc(C(=O)N[C@@H](CCCN)C(=O)N(C)[C@H](C(=O)N[C@@H](C)C(=O)N[C@H]3Cc4cn(nn4)CCCN4C[C@@H]5OB(O[C@@H]5C4)[C@H](C)NC3=O)[C@@H](C)O)cc2)cc1
95.7%

Also check CCCCCCc1ccc(-c2ccc(C(=O)N[C@@H](CCCN)C(=O)N[C@H](C(=O)N[C@@H](C)C(=O)N[C@H]3Cc4cn(nn4)CCO[C@@H]4C[C@@H]5OB(O[C@@H]5C4)[C@H](C)NC3=O)[C@@H](C)O)cc2)cc1
90.6%

Also check CCCCCCc1ccc(-c2ccc(C(=O)N[C@@H](Cc3cnc[nH]3)C(=O)N[C@H](C(=O)N[C@@H](C)C(=O)N[C@H]3Cc4cn(nn4)CCCN4C[C@@H]5OB(O[C@@H]5C4)[C@H](C)NC3=O)[C@@H](C)O)cc2)cc1
94.7%

====

# Test system: Signal peptidase I (Escherichia coli K-12) (UniProt P00803)
# Test protocol: Inhibition of Escherichia coli type 1 signal peptidase lepB assessed as residual activity at 10 uM preincubated for 10 mins followed by Dabcyl-VGGTATAYGAFSRPGLE-(EDANS)-OH substrate addition measured after 2 hrs by FRET based assay (reference value: 100%)
In this section we review reported Activity values for a set of compounds.
Number only, in %; omit the unit.

compound=CCCCCCc1ccc(-c2nc3cc(C(=O)N[C@@H](CCCN)C(=O)N[C@H](C(=O)N[C@@H](C)C(=O)N[C@H]4Cc5cn(nn5)CCO[C@@H]5C[C@@H]6OB(O[C@@H]6C5)[C@H](C)NC4=O)[C@@H](C)O)ccc3[nH]2)cc1 measured_attribute=Activity unit_tag=% value_observed=6.3

Item C[C@@H]1NC(=O)[C@@H](NC(=O)[C@H](C)NC(=O)[C@@H](NC(=O)[C@H](CCCN)NC(=O)C#Cc2ccc(-c3ccccc3)cc2)[C@@H](C)O)Cc2cn(nn2)CCO[C@@H]2C[C@@H]3OB1O[C@@H]3C2 has what recorded Activity?
6.8

Also check CCCCCCC#Cc1cncc(C(=O)N[C@@H](CCCN)C(=O)N[C@H](C(=O)N[C@@H](C)C(=O)N[C@H]2Cc3cn(nn3)CCO[C@@H]3C[C@@H]4OB(O[C@@H]4C3)[C@H](C)NC2=O)[C@@H](C)O)c1
-1.2

Also check CCCCCCc1ccc(-c2ccc(C(=O)N[C@@H](CCCN)C(=O)N(C)[C@H](C(=O)N[C@@H](C)C(=O)N[C@H]3Cc4cn(nn4)CCCN4C[C@@H]5OB(O[C@@H]5C4)[C@H](C)NC3=O)[C@@H](C)O)cc2)cc1
3.7

Also check CCCCCCc1ccc(-c2ccc(C(=O)N[C@@H](CCCN)C(=O)N[C@H](C(=O)N[C@@H](C)C(=O)N[C@H]3Cc4cn(nn4)CCCN4C[C@@H]5OB(O[C@@H]5C4)[C@H](C)NC3=O)[C@@H](C)O)cc2)cc1
5.6

====

In this section we review reported Activity values for a set of compounds.
# Test system: Signal peptidase I (Escherichia coli K-12)
# Test protocol: Inhibition of Escherichia coli type 1 signal peptidase lepB assessed as residual activity at 0.3125 uM preincubated for 10 mins followed by Dabcyl-VGGTATAYGAFSRPGLE-(EDANS)-OH substrate addition measured after 2 hrs by FRET based assay (reference value: 100%)
Number only, in %; omit the unit.

Please review the following examples before continuing.
smiles_repr=CCCCCCc1ccc(-c2c[nH]c3ccc(C(=O)N[C@@H](CCCN)C(=O)N[C@H](C(=O)N[C@@H](C)C(=O)N[C@H]4Cc5cn(nn5)CCO[C@@H]5C[C@@H]6OB(O[C@@H]6C5)[C@H](C)NC4=O)[C@@H](C)O)cc23)cc1 measured_attribute=Activity value_observed=42.8
smiles_repr=CCCCCCc1ccc(-c2nc3cc(C(=O)N[C@@H](CCCN)C(=O)N[C@H](C(=O)N[C@@H](C)C(=O)N[C@H]4Cc5cn(nn5)CCO[C@@H]5C[C@@H]6OB(O[C@@H]6C5)[C@H](C)NC4=O)[C@@H](C)O)ccc3[nH]2)cc1 measured_attribute=Activity value_observed=6.8
smiles_repr=C[C@@H]1NC(=O)[C@@H](NC(=O)[C@H](C)NC(=O)[C@@H](NC(=O)[C@H](CCCN)NC(=O)c2ccc(-c3ccccc3)cc2)[C@@H](C)O)Cc2cn(nn2)CCO[C@@H]2C[C@@H]3OB1O[C@@H]3C2 measured_attribute=Activity value_observed=12

Item CCCCCCc1ccc(-c2ccc(C(=O)N[C@@H](Cc3cnc[nH]3)C(=O)N[C@H](C(=O)N[C@@H](C)C(=O)N[C@H]3Cc4cn(nn4)CCCN4C[C@@H]5OB(O[C@@H]5C4)[C@H](C)NC3=O)[C@@H](C)O)cc2)cc1 has what recorded Activity?
39.7
